System: PANC-1 (human pancreatic cancer-derived cell line)
assay remarks: MTS assay on Panc-1 (human pancreas carcinoma cell line)
Assay type: cell-based
study conditions: 144 h, PANC-1, MTS, 6 days, 1 μM, read-out: Growth inhibition (%) 1 μM
experimental endpoint: inhibition at 1 µM (%)
Form entry: value (%) — number only.

CN1CCC(N2C[C@@H]3N(C(=O)/C=C/c4nc5ccccc5s4)c4ccc(F)cc4C(=O)N3[C@@H](CCCCN(C)C3CCN(C(=O)OC(C)(C)C)CC3)C2=O)CC1 [ID-59] : 98.8
CC(C)(C)C[C@H]1C(=O)N(CC2CCNCC2)C[C@@H]2N(C(=O)/C=C/c3cnc4ccccc4n3)O[C@H](CC3CCCCC3)C(=O)N21 [ID-26] : 96.1
CC(C)N1CCC(N2C[C@@H]3N(C(=O)/C=C/c4cnc5ccccc5n4)O[C@H](CC4CCCCC4)C(=O)N3[C@@H](CC(C)(C)C)C2=O)CC1 [ID-106] : 101
CC(C)(C)C[C@H]1C(=O)N(CC2CCCCC2)C[C@@H]2N(C(=O)/C=C/c3cnc4ccccc4n3)O[C@H](CC3CCCCC3)C(=O)N21 [ID-25] : 6
CC(C)C[C@H]1C(=O)N(C2CCN(C)CC2)C[C@@H]2N(C(=O)/C=C/c3nc4ccccc4s3)c3ccccc3C(=O)N21 [ID-58] : 78.4
CCC(CC)C[C@H]1ON(C(=O)/C=C/c2cnc3ccccc3n2)[C@H]2CN([C@@H]3CCN(CCCCO)C3)C(=O)[C@H](CC(C)(C)C)N2C1=O [ID-107] : 98.5

Query molecule follows.
Ask: Tell us which inhibition at 1 µM value is on record for CC(C)(C)C[C@H]1C(=O)N([C@@H]2CCN(CCCCO)C2)C[C@@H]2N(C(=O)/C=C/c3cnc4ccccc4n3)O[C@H](CC3CCCCC3)C(=O)N21 [ID-90]
Reply: 99
